Would you mind telling me the reported solubility kinetic of each entry?
test-parameters: buffer; pH 7.4; 200.0 µM

Dear colleague, please send me the reported solubility kinetic for Cc1csc2c(N(C)CCO)ncnc12 when you can.
> 33.5 µg/mL

Consider the compound CCC(=O)N1c2ccccc2C(N(C(=O)CC)c2ccccc2)CC1C (stereo not drawn) . State its measured solubility kinetic.
> 52.6 µg/mL

Indicate the recorded solubility kinetic value for this compound: O=C(Nc1ccc2c(c1)OCO2)C1CCCCC1
> 37.1 µg/mL

Entry O=C(Nc1ccc(F)cc1)c1cccc2ccccc12 needs its solubility kinetic filled in; supply it.
< 0.6 µg/mL

Output measured solubility kinetic for this item: Cc1c(CNCCc2ccccc2)c(C(=O)O)c(C)n1-c1ccccc1
> 52.3 µg/mL

Dear colleague, please send me the reported solubility kinetic for O=C(CSc1nnc(NC(=O)c2ccccc2F)s1)NC1CC1 when you can.
> 52.9 µg/mL

In one line, give reported solubility kinetic of the entry Cc1nn(C(=O)/C(C#N)=C/N(C)C)c(C)c1C .
> 34.8 µg/mL

Give me measured solubility kinetic, please, for this compound: O=C(COC(=O)c1ccccc1O)Nc1cc([N+](=O)[O-])ccc1Cl
< 0.4 µg/mL

* * *

For each of the compounds below, state its solubility kinetic.
test-parameters: buffer; pH 7.4; 200.0 µM

Consider the compound Cc1csc(=O)n1CC(=O)Nc1nc2ccccc2s1 . State its measured solubility kinetic.
> 45.8 µg/mL

Fill in solubility kinetic for record CC(=O)N(c1ccc(Cl)cc1)c1cn(C(C)=O)c2ccccc12
> 49 µg/mL

Provide one value: measured solubility kinetic of Cn1ccc(C(=O)OCC(=O)Nc2ccccc2Cl)n1
> 44.1 µg/mL

Return solubility kinetic (reported value) for this compound: CCN(CC)CCCNc1cc(C)nc2cc(-c3cccs3)nn12
> 51.5 µg/mL

Item COc1ccccc1N1CCN(Cc2cc3c(cc2O)OCO3)CC1 : provide solubility kinetic
> 51.4 µg/mL

Give the reported solubility kinetic for this compound. Cc1[nH]c2ccccc2c1C(c1ccncc1)N1CCC(C)CC1 (stereo not drawn)
> 47.9 µg/mL

Look up and state reported solubility kinetic for Cc1cc(=O)n(-c2ccc(Cl)cc2)c(=O)[nH]1
> 35.5 µg/mL

Give the reported solubility kinetic for this compound. O=C(COC(=O)c1cc(S(=O)(=O)N2CCCC2)ccc1O)Nc1ccc(F)cc1F
> 66.1 µg/mL

Quickly give me recorded solubility kinetic for O=C(CNC(=O)c1ccc(OC(F)F)cc1)NCC1CCCO1 (stereo not drawn)
> 49.2 µg/mL

Annotate the compound CC(=O)Nc1ccc(C(=O)COC(=O)c2ccco2)c(F)c1 with its measured solubility kinetic.
> 45.8 µg/mL

Query solubility kinetic for c1ccc2c(c1)OCC(CNCC1COc3ccccc3O1)O2 (stereo not drawn)
> 47 µg/mL

Please report the measured solubility kinetic for O=C(CCc1c[nH]c2ccccc12)N1CCCC1
> 36.3 µg/mL

// Input: CCN(CC)C(=O)Oc1ccnc2cc(Cl)ccc12 . Output its solubility kinetic only.
> 41.8 µg/mL

# return recorded solubility kinetic for entry Cc1ccc(/C=C/C(=O)O)cc1S(=O)(=O)N1CCc2ccccc21
> 51.5 µg/mL

Provide only the value of recorded solubility kinetic for O=C(NCc1ccccc1F)C1CCCN1C(=O)Nc1ccccc1 (stereo not drawn)
> 51.2 µg/mL

Give me measured solubility kinetic, please, for this compound: CN(N)c1nc(N2CCCC2)nc(N2CCCC2)n1
> 39.5 µg/mL

Dear colleague, please send me the reported solubility kinetic for Nc1cc(S(=O)(=O)Nc2ccc(Cl)cc2)ccc1N1CCOCC1 when you can.
> 55.2 µg/mL

For the compound CSC1=C(C#N)C(=O)NC(c2ccccc2O)S1 (stereo not drawn) , give its measured solubility kinetic value.
> 41.8 µg/mL

* * *

test-parameters: buffer; pH 7.4; 200.0 µM
experimental-readout: solubility kinetic

Tell me solubility kinetic reported for CCc1cccc2c1NC1(CCCC1)CC2C.Cl (stereo not given)
< 0.6 µg/mL

Please report the measured solubility kinetic for CC(C)OP(=O)(c1ccc(N(C)C)cc1)C(O)c1cccnc1 (stereo not given)
> 50.2 µg/mL

Look up and report measured solubility kinetic for this entry: O=C1CC(C(=O)NC2CCCCC2)C2(CCCCC2)O1 (stereo not given)
> 41.9 µg/mL

Using the record for O=C1[C@H](O)[C@@H](O)C(=O)N1Cc1ccccc1 , state its measured solubility kinetic.
> 33.2 µg/mL

Let me know recorded solubility kinetic for CC1CCN(Cc2cc(=O)oc3cc4c(cc23)CCCC4)CC1 , thanks.
< 0.7 µg/mL

* * *

Would you mind telling me the reported solubility kinetic of each entry?
test-parameters: buffer; pH 7.4; 200.0 µM
A number alone suffices; assume µg/mL.

Given Fc1cccc(COc2ccccc2C(=S)N2CCCC2)c1 , respond with its solubility kinetic.
15

Return reported solubility kinetic. Input compound: Cc1cccc(N2C(=O)C3CCCN3C2=S)c1 (stereo not given)
36.1

Tell me measured solubility kinetic for O=S(=O)(c1ccc(Cl)nc1)N1CCc2ccccc21 please.
24.9

Identify measured solubility kinetic associated with O=C(Cn1c(=S)[nH]c2ccccc2c1=O)NCCc1ccccc1
0.9

Identify measured solubility kinetic corresponding to CCN(CC)c1ccc(CNCc2cccs2)cc1.Cl
44.2

* * *

test-parameters: buffer; pH 7.4; 200.0 µM
experimental-readout: solubility kinetic

Check the records and state solubility kinetic for CCN(CC)S(=O)(=O)c1ccc2nc(CCl)[nH]c2c1
> 0.0453 mg/mL

Report solubility kinetic for CC(OC(=O)c1ccco1)C(=O)NC1CCCC1 (configuration not stated)
> 0.0377 mg/mL

Check the records and state solubility kinetic for COc1ccc(CCNC(=S)c2ccccc2)cc1OC
> 0.0452 mg/mL

Give solubility kinetic for COc1cccc(CNS(=O)(=O)c2csc(C(N)=O)c2)c1
> 0.049 mg/mL

Determine its reported solubility kinetic: O=c1c2c([nH]c3ccccc13)CCC2
> 0.0278 mg/mL

Please look at this molecule and report its solubility kinetic: Cc1cccc(NC(=O)CCN2CCC(C)CC2)c1
> 0.0391 mg/mL

Identify measured solubility kinetic corresponding to CC(Oc1ccc([N+](=O)[O-])cc1)C(=O)NCC1CCCO1 (configuration not stated)
> 0.0441 mg/mL

* * *

test-parameters: buffer; pH 7.4; 200.0 µM
// no strictly below 8 µg/mL in solubility kinetic; yes otherwise

Check this compound for solubility kinetic at or above 8 µg/mL: COc1ccc(NC(=S)NC(=O)/C=C/c2ccco2)c(OC)c1
no

Textbook exercise: given the entry CC(OC(=O)CCOc1ccccc1)C(=O)NC1CC1 (stereo not given) , state whether its solubility kinetic is greater than or equal to 8 µg/mL.
yes

Please tell me: is the compound O=C(O)CCCNC(=O)Cc1ccccc1 at or over 8 µg/mL in terms of solubility kinetic?
yes

Please indicate if the recorded solubility kinetic for NC(=O)c1ccccc1N1CCCCC1 meets or exceeds 8 µg/mL.
yes

Could you please find out whether O=C1Cc2ccccc2C(=O)N1c1cccc(Cl)c1 has solubility kinetic that meets 8 µg/mL or exceeds it?
yes

Can Cc1cccc(N2CN=C3SCC(=O)N3C2)c1 be said to have solubility kinetic at or above 8 µg/mL?
yes

API: above_or_equal(metric=solubility kinetic, cutoff=8 µg/mL) for item Cc1ccc(NC(=O)C2CC(=O)N(Cc3ccco3)C2)cc1 (stereo not given)
yes

Does solubility kinetic meet or surpass 8 µg/mL for O=C1c2ccccc2C2(c3ccccc3)NCCCN12 (stereo not given) ?
yes

Could you tell me if the measured solubility kinetic of Cc1ccc(C)n1-c1ccccc1N1CCCCC1 reaches 8 µg/mL or more?
no

Check if solubility kinetic >= 8 µg/mL (inclusive). Item: O=C(COC(=O)C1(c2ccccc2)CCCC1)N1CCNC1=O
yes

Kindly determine if solubility kinetic recorded for CC(NC(=S)Nc1ccccc1C(F)(F)F)C1CC2CCC1C2 (stereo not given) is above or exactly 8 µg/mL.
no

Reported solubility kinetic reaches at least 8 µg/mL for CCOC(=O)Cc1csc(NC(=O)COc2cccc(C)c2)n1 ?
yes

Is solubility kinetic for CCOC(=O)c1sc(NC(=O)C2=COCCO2)c(C#N)c1C at or above 8 µg/mL?
yes

solubility kinetic >= 8 µg/mL for COC(=O)c1sccc1NC(=O)CC1NCCNC1=O (stereo not given) ?
yes

Record CC(=O)Nc1cccc(-c2nc3ccccc3o2)c1 ; criterion: solubility kinetic no lower than 8 µg/mL. Met?
no

* * *

test-parameters: buffer; pH 7.4; 200.0 µM
experimental-readout: solubility kinetic (µg/mL)
Entry rule: numbers only, all in µg/mL.

Consider the molecule Cc1ccc([N+](=O)[O-])c(OCc2ncc(Cl)n2C)c1 . State its measured solubility kinetic.
9.8

Quickly give me recorded solubility kinetic for O=C(/C=C/c1ccc(Cl)cc1)OCC(=O)c1ccc[nH]1
2.2

Specify reported solubility kinetic for the molecule shown: O=[N+]([O-])c1ccc(Sc2ncc3ccccn23)nc1
20.6

Give the measured solubility kinetic for CCc1ccc2nc(NC(=O)CN3C(=O)NC4(CCCC4)C3=O)sc2c1
2.6

For the molecule CN(Cc1ccccc1)c1ccc(N2C(=O)CCC2=O)cc1[N+](=O)[O-] , report solubility kinetic.
38.7

State its solubility kinetic for this molecule: COc1ccc(C(O)Cn2ccsc2=NC(C)=O)cc1 (configuration not stated)
41.3

Name the recorded solubility kinetic of the molecule listed here: Cc1ccc(C(=O)Oc2ccc(C(=S)N3CCOCC3)cc2)cc1
2.5

Note down solubility kinetic recorded for CN1C(=O)NC(c2ccccc2[N+](=O)[O-])C2=C1CC(C)(C)CC2=O (configuration not stated)
39.4

Using known records, supply solubility kinetic for CC1CCc2c(C(=O)Nc3ccccn3)csc2C1 (configuration not stated)
11.6

Provide only the value of recorded solubility kinetic for CCn1c(=O)c2c(nc3n2CCN3c2ccccc2)n(C)c1=O
3.1

Look up solubility kinetic of O=C(O)CC(NC(=O)Cc1ccccc1)c1ccccc1 (configuration not stated) and report it.
27.4
